Values were extracted from PubChem BioAssay (NCATS).

Target system: Tyrosine-protein kinase Yes (Homo sapiens)
Test name: qHTS for small molecule inhibitors of Yes1 kinase: Primary Screen (AID 686947); further: nearly all actives have a fitted effect of over 60% in size
Test parameters: Yes1 kinase biochemical qHTS inhibition; series mostly up to 76.9 µM
Inconclusive results are not listed. The source made the active and inactive calls. The call rests on the fitted dose curve; in most records, active means well fitted inhibition curve with a large enough effect; inconclusive means small, poorly fitted or top-dose-only effect; inactive means no such curve, though single readings can be large or run the other way.
Pick from 1 = active, 0 = inactive when you respond.

Completed entries (count: 4):
Clc1ccc(CNc2nccc(-c3cnn4ncccc34)n2)cc1
0
COc1cc2ncn(-c3cc(OCCc4ccccc4)c(C(N)=O)s3)c2cc1OC
0
Fc1ccc(-c2ncn(C3CCNCC3)c2-c2ccnc(Oc3ccc(F)c(F)c3)n2)cc1
0
Cc1cc(O)cc(C)c1C=Cc1cncc(C(=O)OC(C)(C)C)c1
1

Call for entry CS(=O)(=O)Nc1ccc(-c2ccc3c(NC(=O)C4CC4)n[nH]c3c2)cc1 :
1

Call for entry O=C1NC(=O)C(c2ccc(Cl)cc2)=C1Nc1ccc(Cl)c(C(=O)O)c1 :
0

Call for entry Cc1cc(-c2ccco2)cc(C)c1C=Cc1cncc(-c2nn[nH]n2)c1 :
1

###

Target system: Cytochrome P450 3A4 (Homo sapiens) (UniProt P08684)
Sequence (P08684 whole entry, looked up): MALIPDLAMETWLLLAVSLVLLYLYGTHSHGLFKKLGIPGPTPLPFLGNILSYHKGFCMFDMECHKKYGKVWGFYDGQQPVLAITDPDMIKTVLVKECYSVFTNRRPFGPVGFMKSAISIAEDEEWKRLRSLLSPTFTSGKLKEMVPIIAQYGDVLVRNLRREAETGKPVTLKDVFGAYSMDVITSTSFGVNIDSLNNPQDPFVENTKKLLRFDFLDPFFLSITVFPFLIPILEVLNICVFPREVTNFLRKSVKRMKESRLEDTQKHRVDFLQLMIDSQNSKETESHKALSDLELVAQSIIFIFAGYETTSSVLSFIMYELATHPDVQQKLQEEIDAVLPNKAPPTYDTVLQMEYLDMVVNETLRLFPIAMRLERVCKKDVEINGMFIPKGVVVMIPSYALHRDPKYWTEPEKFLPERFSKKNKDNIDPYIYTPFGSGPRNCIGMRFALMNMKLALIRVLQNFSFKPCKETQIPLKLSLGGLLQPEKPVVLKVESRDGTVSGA
Test name: qHTS Assay for Activators of Cytochrome P450 3A4 (AID 885); further: nearly all actives have a fitted effect of over 65% in size
Test parameters: recombinant CYP3A4, Luciferin-PPXE luminescence, 60 min; series mostly up to 57.1 µM
Activity calls are given as the source filed them. Calls follow the shape of the dose curve; as a rule, active = well fitted activation curve with a large enough effect; inconclusive = small, poorly fitted or top-dose-only effect; inactive = no such curve, though single readings can be large or run the other way.
Reported metric: activity change, positive = activation

Some compounds with known activity change, positive = activation results, for comparison:
OCC1OC(c2ccc3c(c2)OCO3)C=CC1Oc1ccc(C2CCCC2)cc1 (stereo not drawn)
-50.7% [at 11.4 µM] (inactive)
COC(=O)C/C=C\[C@@H](C)[C@@H](CO)NS(=O)(=O)c1ccc(C)cc1
-37.6% [at 11.4 µM] (inactive)
C=CCOC(=O)C(C(=O)CC)C(NC(=O)OC)c1ccc(F)cc1 (stereo not drawn)
-52.3% [at 11.4 µM] (inactive)
COC(=O)C/C=C\[C@@H](C)[C@@H](/C=N\O[C@@H](C)c1cc(-c2c(C)cc(C)cc2C)no1)NS(=O)(=O)c1ccc(C)cc1
-103% [at 11.4 µM] (inactive)

Please report the measured activity change, positive = activation for COc1ccc(COC(=O)N/N=C2/C[C@@H](O)[C@@H](O)[C@@H]3[C@H]4C(=O)N(c5ccc(F)cc5F)C(=O)[C@@H]4CC[C@H]23)cc1
-51.6% [at 11.4 µM] (inactive)

Please report the measured activity change, positive = activation for CO[C@H]1COC(=O)[C@H]2CCCN2C(=O)C/C=C\[C@@H](C)[C@H](OC)COC(=O)[C@@H](OCc2ccccc2)/C=C\[C@@H]1C
-30.9% [at 11.4 µM] (inactive)

Please report the measured activity change, positive = activation for CC(C)CCN1CCc2nc(-c3ccccc3)c3c(c2C1)COC(C)C3 (stereo not drawn)
-56% [at 11.4 µM] (inactive)

###

Test name: qHTS profiling for inhibitors of Plasmodium falciparum (HB3) proliferation (AID 743324);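 further: 100% = DMSO vehicle wells and 0% = artemisinin-treated control wells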
Test parameters: Plasmodium falciparum HB3 blood-stage proliferation; at 28.7 µM (top of the series)
Reported metric: remaining proliferation (% of control), lower = more inhibition (%)
Your answer should be a plain number; it is taken to be in %.

CCOc1ccc(F)cc1C1(O)C(N)=Nc2ccc(Cl)cc21 (configuration not stated)
1.54
CCCC[C@@H]1C[C@@H](C(=O)NC([C@H](C)Cl)[C@H]2O[C@H](S)[C@H](O)[C@@H](O)[C@@H]2O)N(C)C1 (some centres not stated)
31.5
O=C([C@H](Cc1ccc(O[S+](=O)([O-])c2cccnc2)cc1)N[S+](=O)([O-])c1cccnc1)N1CCN(c2ccccc2)CC1
3.22

Please report the measured remaining proliferation (% of control), lower = more inhibition for O=C([C@H](Cc1ccc(O[S+](=O)([O-])c2ccccn2)cc1)N[S+](=O)([O-])c1cccnc1)N1CCN(c2ccccc2)CC1
2.38

Please report the measured remaining proliferation (% of control), lower = more inhibition for O=C([C@H](Cc1ccc(O[S+](=O)([O-])c2cccnc2)cc1)N[S+](=O)([O-])c1ccccn1)N1CCN(c2ccccc2)CC1
2.47

Please report the measured remaining proliferation (% of control), lower = more inhibition for O=C([C@H](Cc1ccc(OS(=O)(=O)c2cccc3cnccc23)cc1)NS(=O)(=O)c1cccc2cnccc12)N1CCN(c2ccccc2)CC1
0.712

Please report the measured remaining proliferation (% of control), lower = more inhibition for O=C([C@@H](Cc1ccc(O[S+](=O)([O-])c2ccccn2)cc1)N[S+](=O)([O-])c1cccc2cccnc12)N1CCN(c2ccccc2)CC1
0.71
